Sourced from patent US6737383B1

Entries and their Plant response rating, Crabgrass values follow.
# System: crabgrass
# assay-explanation: Test B pre/postemergence crabgrass
# Format: in vivo, Digitaria sanguinalis
# cond: Preemergence, Rate 250 g/ha; scale of 0 to 10 where 0 is no effect and 10 is complete control

compound	target-under-test	Plant response rating, Crabgrass
CC(C)N(C(=O)n1oc(=O)n(Cc2cccs2)c1=O)c1ccccc1 [Compound 103]	crabgrass	9
Cc1cccc(C)c1-n1c(=O)on(C(=O)N(c2ccccc2)C(C)C)c1=O [Compound 46]	crabgrass	10
CC(C)N(C(=O)n1oc(=O)n(C2CCCCC2C(F)(F)F)c1=O)c1ccc(F)cc1 (stereo not drawn) [Compound 99]	crabgrass	10
CC(C)N(C(=O)n1oc(=O)n(-c2ccc(OC(F)(F)F)cc2)c1=O)C1=CCOCC1 [Compound 13]	crabgrass	5
CCc1ccccc1-n1c(=O)on(C(=O)N(c2ccc(F)cc2F)C(C)C)c1=O [Compound 45]	crabgrass	1
CC(C)N(C(=O)n1oc(=O)n(Cc2cccs2)c1=O)c1ccc(F)cc1 [Compound 80]	crabgrass	10
